Data provenance is patent US20250282723A1.

# Test details: Fluorescence excitation and emission spectra of free (unbound) probes in aqueous solution
# Format: physicochemical
# Test context: free probe in aqueous solution
Provide the reported Em (λmax) (Free) of each item.
Answers are plain numbers, in nm.

Reference set, count: 4
Compound	Em (λmax) (Free) [nm]
COCCOCCOCCNC(=O)/C(C#N)=C/c1ccc2cc(N3CCCCC3C)ccc2c1 (racemic)	583
COCCOCCOCCNC(=O)/C(C#N)=C(\C)c1ccc2cc(N3CCCCC3)ccc2c1	601
COCCOCCOCCNC(=O)C(C#N)=Cc1ccc2cc(N3CCCCC3)ccc2c1 (mixture of isomers)	590
CCC1CCCCN1c1ccc2cc(/C=C(\C#N)C(=O)NCCOCCOCCOC)ccc2c1 (racemic)	575

Let us examine a further case.
*Q* Give a short answer stating reported Em (λmax) (Free) for COCCOCCOCCNC(=O)C(C#N)=C(c1ccc2cc(N3CCCCC3)ccc2c1)C(F)(F)F (mixture of isomers) .
*A* 547

* * *

Provide the reported Emmax (Free) of each item.
# Test details: Fluorescence excitation and emission spectra of free (unbound) probes in aqueous solution
# Type: physicochemical
# Test context: probes of FIG. 14, free
One number for each entry, in nm.

Reference set, count: 3
Molecule	Emmax (Free) / nm
CCCC1CCCCN1c1ccc2cc(/C=C(\C#N)C(=O)NCCOCCOCCOC)ccc2c1 (stereo not shown)	578
CCC1CCCCN1c1ccc2cc(/C=C(\C#N)C(=O)NCCOCCOCCOC)ccc2c1 (racemic)	575
COCCOCCOCCNC(=O)/C(C#N)=C/c1ccc2cc(N3CCCCC3C)ccc2c1 (racemic)	583

Let us examine a further case.
*Q* Give a short answer stating reported Emmax (Free) for COCCOCCOCCNC(=O)C(C#N)=Cc1ccc2cc(N3CCCCC3)ccc2c1 (mixture of isomers) .
*A* 590

* * *

# Test details: Quantum yield measurements
# Type: physicochemical
# Test context: probes of FIG. 14; 5% DMSO/H2O, reference standard Coumarin 30
Provide the reported Quantum Yield (Φ) of each item.
Give bare numbers.

Reference set, count: 3
Compound	Reported result
COCCOCCOCCNC(=O)/C(C#N)=C/c1ccc2cc(N3CCCCC3C)ccc2c1 (racemic) [Compound 4]	0.0062
CCC1CCCCN1c1ccc2cc(/C=C(\C#N)C(=O)NCCOCCOCCOC)ccc2c1 (racemic) [Compound 5]	0.0055
CCCC1CCCCN1c1ccc2cc(/C=C(\C#N)C(=O)NCCOCCOCCOC)ccc2c1 (stereo not shown) [Probe 4]	0.0062

Let us examine a further case.
*Q* Give a short answer stating reported Quantum Yield (Φ) for COCCOCCOCCNC(=O)C(C#N)=Cc1ccc2cc(N3CCCCC3)ccc2c1 (mixture of isomers) [Compound 1] .
*A* 0.0066

* * *

# Target or system: aggregated αS (Homo sapiens)
# Construct: made in house; host or cells: E. coli BL21 (plasmid pET5α aSynWT)
# Test details: Fluorescence emission and fluorescence enhancement of probes bound versus unbound to aggregated αS
# Assay type: binding
# Test context: probes of FIG. 14; selectivity of fluorescence response to αS fibrils over Aβ fibrils
Result type: FI αS/Aβ
Give bare numbers.

Compound	Target or system	Result type	Reported result
CCCC1CCCCN1c1ccc2cc(/C=C(\C#N)C(=O)NCCOCCOCCOC)ccc2c1 (stereo not shown)	aggregated αS (Homo sapiens)	FI αS/Aβ	2.9
CCC1CCCCN1c1ccc2cc(/C=C(\C#N)C(=O)NCCOCCOCCOC)ccc2c1 (racemic)	aggregated αS (Homo sapiens)	FI αS/Aβ	3.8
COCCOCCOCCNC(=O)/C(C#N)=C/c1ccc2cc(N3CCCCC3C)ccc2c1 (racemic)	aggregated αS (Homo sapiens)	FI αS/Aβ	2.0

Let us examine a further case.
*Q* Give a short answer stating reported FI αS/Aβ for COCCOCCOCCNC(=O)C(C#N)=Cc1ccc2cc(N3CCCCC3)ccc2c1 (mixture of isomers) .
*A* 1.4

* * *

# Target or system: aggregated Aβ (1-42) peptides (Homo sapiens, UniProt P05067)
# Construct: Synthetic Aβ (1-42) peptide was purchased from Biopeptide, Co LLC; purchased Biopeptide, Co LLC (San Diego, California); host or cells: chemical synthesis
# Sequence (P05067 672-713): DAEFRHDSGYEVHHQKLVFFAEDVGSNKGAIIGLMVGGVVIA
# Test details: Fluorescence excitation/emission and fluorescence enhancement of probes bound versus unbound to aggregated Aβ (1-42) peptides
# Type: binding
# Test context: probes of FIG. 14; fold increase of fluorescence, bound vs unbound, aggregated Aβ(1-42) 5 μM, probe 4 μM
Result type: FI with Aβ
Give bare numbers.

Compound	FI with Aβ
CCCC1CCCCN1c1ccc2cc(/C=C(\C#N)C(=O)NCCOCCOCCOC)ccc2c1 (stereo not shown)	1.8
COCCOCCOCCNC(=O)C(C#N)=Cc1ccc2cc(N3CCCCC3)ccc2c1 (mixture of isomers)	2.1
CCC1CCCCN1c1ccc2cc(/C=C(\C#N)C(=O)NCCOCCOCCOC)ccc2c1 (racemic)	1.2

Let us examine a further case.
*Q* Give a short answer stating reported FI with Aβ for COCCOCCOCCNC(=O)/C(C#N)=C/c1ccc2cc(N3CCCCC3C)ccc2c1 (racemic) .
*A* 1.9

* * *

Provide the reported QY of each item.
# Test details: Quantum yield measurements
# Format: physicochemical
# Test context: 5% DMSO/H2O, reference standard Coumarin 30
Give bare numbers.

Reference set, count: 3
Compound	QY
CCC1CCCCN1c1ccc2cc(/C=C(\C#N)C(=O)NCCOCCOCCOC)ccc2c1 (racemic)	0.0055
COCCOCCOCCNC(=O)C(C#N)=Cc1ccc2cc(N3CCCCC3)ccc2c1 (mixture of isomers)	0.0066
COCCOCCOCCNC(=O)/C(C#N)=C(\C)c1ccc2cc(N3CCCCC3)ccc2c1	0.0016

Could you tell me QY for each of these compounds? They are listed below.
1. COCCOCCOCCNC(=O)C(C#N)=C(c1ccc2cc(N3CCCCC3)ccc2c1)C(F)(F)F (mixture of isomers)
2. Cc1ccc2c(c1)sc(-c1ccc(N(C)C)cc1)[n+]2C.[Cl-] [ThT, Thioflavin T, reference compound]
3. COCCOCCOCCNC(=O)/C(C#N)=C/c1ccc2cc(N3CCCCC3C)ccc2c1 (racemic)

*A*
[0.0012, 0.0006, 0.0062]

* * *

# Target or system: aggregated Aβ (1-42) peptides (Homo sapiens)
# Construct: Synthetic Aβ (1-42) peptide was purchased from Biopeptide, Co LLC; purchased Biopeptide, Co LLC (San Diego, California); host or cells: chemical synthesis
# Test details: Estimation of binding constant (KD) to aggregated Aβ (1-42) peptides
# Test context: aggregated Aβ(1-42) 5 μM, increasing concentration of probe, 5% DMSO in nanopure water
Result type: Kd (µM)
One number for each entry, in µM.

Compound	Target or system	Result type	Unit	Reported result
COCCOCCOCCNC(=O)/C(C#N)=C/c1ccc2cc(N3CCCCC3C)ccc2c1 (racemic)	aggregated Aβ (1-42) peptides (Homo sapiens)	Kd	µM	4.4
COCCOCCOCCNC(=O)C(C#N)=Cc1ccc2cc(N3CCCCC3)ccc2c1 (mixture of isomers)	aggregated Aβ (1-42) peptides (Homo sapiens)	Kd	µM	6.3
COCCOCCOCCNC(=O)/C(C#N)=C(\C)c1ccc2cc(N3CCCCC3)ccc2c1	aggregated Aβ (1-42) peptides (Homo sapiens)	Kd	µM	5
CCC1CCCCN1c1ccc2cc(/C=C(\C#N)C(=O)NCCOCCOCCOC)ccc2c1 (racemic)	aggregated Aβ (1-42) peptides (Homo sapiens)	Kd	µM	3.2

*Q* Give a short answer stating reported Kd for COCCOCCOCCNC(=O)C(C#N)=C(c1ccc2cc(N3CCCCC3)ccc2c1)C(F)(F)F (mixture of isomers) .
*A* 3.7

* * *

# Test details: Fluorescence excitation and emission spectra of free (unbound) probes in aqueous solution
# Format: physicochemical
# Test context: free probe in aqueous solution
Respond with criterion met for Ex (λmax) (Free) values of 400 nm and above, criterion not met for values below.

Known results for compounds:
Compound	Assigned label
COCCOCCOCCNC(=O)/C(C#N)=C/c1ccc2cc(N3CCCCC3C)ccc2c1 (racemic)	criterion met
COCCOCCOCCNC(=O)/C(C#N)=C(\C)c1ccc2cc(N3CCCCC3)ccc2c1	criterion not met
COCCOCCOCCNC(=O)C(C#N)=C(c1ccc2cc(N3CCCCC3)ccc2c1)C(F)(F)F (mixture of isomers)	criterion met

*Q* Hi, just wondering whether CCC1CCCCN1c1ccc2cc(/C=C(\C#N)C(=O)NCCOCCOCCOC)ccc2c1 (racemic) shows Ex (λmax) (Free) of 400 nm or higher.
*A* criterion met

* * *

# Target or system: aggregated Aβ (1-42) peptides (Homo sapiens, UniProt P05067)
# Construct: Synthetic Aβ (1-42) peptide was purchased from Biopeptide, Co LLC; purchased Biopeptide, Co LLC (San Diego, California); host or cells: chemical synthesis
# Test details: Fluorescence excitation/emission and fluorescence enhancement of probes bound versus unbound to aggregated Aβ (1-42) peptides
# Format: binding
# Test context: aggregated Aβ (1-42) 5 μM, probe 4 μM, 5% DMSO in nanopure water
Provide the reported Em (λmax) (with Aβ) of each item.
Give bare numbers, in nm.

Reference set, count: 3
Molecule	Em (λmax) (with Aβ) / nm
COCCOCCOCCNC(=O)C(C#N)=C(c1ccc2cc(N3CCCCC3)ccc2c1)C(F)(F)F (mixture of isomers)	514
CCC1CCCCN1c1ccc2cc(/C=C(\C#N)C(=O)NCCOCCOCCOC)ccc2c1 (racemic)	567
COCCOCCOCCNC(=O)/C(C#N)=C/c1ccc2cc(N3CCCCC3C)ccc2c1 (racemic)	559

Could you tell me Em (λmax) (with Aβ) for each of these molecules? They are listed below.
1. COCCOCCOCCNC(=O)/C(C#N)=C(\C)c1ccc2cc(N3CCCCC3)ccc2c1
2. COCCOCCOCCNC(=O)C(C#N)=Cc1ccc2cc(N3CCCCC3)ccc2c1 (mixture of isomers)

*A*
1: 547; 2: 560
